Target: T1, human TL1A extracellular domain with N-terminal HIS and FLAG tag (human, UniProt O95150 72-251)
T1 construct: the whole entry is named; also called TNFSF15
T1 sequence: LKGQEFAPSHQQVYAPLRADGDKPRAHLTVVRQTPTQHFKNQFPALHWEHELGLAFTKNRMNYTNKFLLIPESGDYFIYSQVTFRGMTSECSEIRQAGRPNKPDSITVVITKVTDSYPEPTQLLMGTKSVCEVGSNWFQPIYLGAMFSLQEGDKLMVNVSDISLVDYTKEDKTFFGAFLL
Assay: SPR Run 7, antibody on Protein A, TL1A 5 ug/mL, timepoint 44
Protocol: 1.5. Antibody expression and antigen binding as determined by SPR. Using a CM5 sensor chip (GE Healthcare) Protein A (Pierce) was coupled to the chip surface using an amine coupling kit (GE Healthcare). Protein A was coupled on flow cell 1 and 2 (or alternatively 3 and 4) using a BIACORE® T200. […] At the end of injection of the supernatant or purified antibody the change in response units was measured. […] The response units were measured prior to the end of the dissociation phase. […]
TL1A Binding Level (Early) listing for selected binders.

>  <BINDER>
320-570 (antibody, human IgG1, name in Kabat numbering, V domains shown, full-length human IgG1, lambda) VH: QVQLVQSGAEVKKPGASVKVSCKASGYTFTSYDINWVRQAPGQGLEWMGWLNPNSGNTGHAQKFQGRVTMTADRSTSTAYMELSSLRSEDTAVYYCAREVPETAAFEYWGQGTLVTVSS VL: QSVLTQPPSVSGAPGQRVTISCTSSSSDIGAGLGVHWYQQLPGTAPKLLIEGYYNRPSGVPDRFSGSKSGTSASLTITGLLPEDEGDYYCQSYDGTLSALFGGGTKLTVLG

>  <TL1A Binding Level (Early) (RU)>
79

$$$$
>  <BINDER>
320-579 (antibody, human IgG1, name in Kabat numbering, V domains shown, full-length human IgG1, lambda) VH: QVQLVQSGAEVKKPGASVKVSCKASGYTFTSYDINWVRQAPGQGLEWMGWLLPNSGNTGYAQKFQGRVTMTADRSTSTAYMELSSLRSEDTAVYYCAREVPETAAFEYWGQGTLVTVSS VL: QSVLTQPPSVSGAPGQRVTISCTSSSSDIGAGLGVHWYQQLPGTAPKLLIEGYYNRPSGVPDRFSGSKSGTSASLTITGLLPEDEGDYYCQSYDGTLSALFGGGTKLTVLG

>  <TL1A Binding Level (Early) (RU)>
46

$$$$
